test.system: furin, P09958;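 also: purified furin at 1:10 enzyme:substrate in 50 mM HEPES pH 7.5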
Sequence (P09958 whole entry): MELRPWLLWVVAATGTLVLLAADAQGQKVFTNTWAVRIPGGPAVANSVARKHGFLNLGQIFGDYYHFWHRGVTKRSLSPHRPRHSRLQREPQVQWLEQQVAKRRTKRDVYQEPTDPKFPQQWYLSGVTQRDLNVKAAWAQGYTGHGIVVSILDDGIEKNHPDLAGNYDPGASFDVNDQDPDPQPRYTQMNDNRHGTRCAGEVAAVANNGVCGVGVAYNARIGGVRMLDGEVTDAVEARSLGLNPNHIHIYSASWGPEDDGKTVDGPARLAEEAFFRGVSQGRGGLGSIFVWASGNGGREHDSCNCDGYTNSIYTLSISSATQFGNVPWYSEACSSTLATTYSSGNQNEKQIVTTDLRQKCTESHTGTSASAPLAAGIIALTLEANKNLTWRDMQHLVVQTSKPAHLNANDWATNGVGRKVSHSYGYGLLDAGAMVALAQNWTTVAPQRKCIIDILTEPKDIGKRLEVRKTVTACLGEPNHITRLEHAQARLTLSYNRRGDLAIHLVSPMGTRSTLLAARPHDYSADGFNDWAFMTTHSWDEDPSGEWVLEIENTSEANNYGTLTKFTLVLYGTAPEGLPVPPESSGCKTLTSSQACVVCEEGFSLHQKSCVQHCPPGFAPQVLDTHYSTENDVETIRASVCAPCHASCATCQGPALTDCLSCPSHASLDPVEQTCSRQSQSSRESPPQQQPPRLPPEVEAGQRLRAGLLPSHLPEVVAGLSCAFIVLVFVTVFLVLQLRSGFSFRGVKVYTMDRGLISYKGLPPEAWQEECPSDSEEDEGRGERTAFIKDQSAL
assay.method.text: furin cleavage Z-score vs untreated control; higher = more cleavage, active = 3.5 or more, inactive = 1 or less, 8 variable residues between constant flanks
study.conditions: 15 min
The other results are listed elsewhere or left out. No count for the full screen is at hand.
readout.kind: furin cleavage Z-score

Below, 2 sequences whose answers are already recorded.
CARHKRGRGDAGNASASA [FS-1714]    2.2
CARQNRSVRLAGNASASA [FS-1916]    3.53 (active)

Sample CAVEIRQVGDAGNASASA [HC1206] ; furin cleavage Z-score observed: -1.09 (inactive)

Sample CARQNRGFRAAGNASASA [FS-3040] ; furin cleavage Z-score observed: 0.266 (inactive)
